Numbers sourced from patent US9951064B2.

- target: phosphor-EGFR in H1975(L585R/T790M) mutant EGFR expressing cells (Homo sapiens, UniProt P00533, L858R/T790M)
- Sequence (P00533 25-1210 T790M/L858R): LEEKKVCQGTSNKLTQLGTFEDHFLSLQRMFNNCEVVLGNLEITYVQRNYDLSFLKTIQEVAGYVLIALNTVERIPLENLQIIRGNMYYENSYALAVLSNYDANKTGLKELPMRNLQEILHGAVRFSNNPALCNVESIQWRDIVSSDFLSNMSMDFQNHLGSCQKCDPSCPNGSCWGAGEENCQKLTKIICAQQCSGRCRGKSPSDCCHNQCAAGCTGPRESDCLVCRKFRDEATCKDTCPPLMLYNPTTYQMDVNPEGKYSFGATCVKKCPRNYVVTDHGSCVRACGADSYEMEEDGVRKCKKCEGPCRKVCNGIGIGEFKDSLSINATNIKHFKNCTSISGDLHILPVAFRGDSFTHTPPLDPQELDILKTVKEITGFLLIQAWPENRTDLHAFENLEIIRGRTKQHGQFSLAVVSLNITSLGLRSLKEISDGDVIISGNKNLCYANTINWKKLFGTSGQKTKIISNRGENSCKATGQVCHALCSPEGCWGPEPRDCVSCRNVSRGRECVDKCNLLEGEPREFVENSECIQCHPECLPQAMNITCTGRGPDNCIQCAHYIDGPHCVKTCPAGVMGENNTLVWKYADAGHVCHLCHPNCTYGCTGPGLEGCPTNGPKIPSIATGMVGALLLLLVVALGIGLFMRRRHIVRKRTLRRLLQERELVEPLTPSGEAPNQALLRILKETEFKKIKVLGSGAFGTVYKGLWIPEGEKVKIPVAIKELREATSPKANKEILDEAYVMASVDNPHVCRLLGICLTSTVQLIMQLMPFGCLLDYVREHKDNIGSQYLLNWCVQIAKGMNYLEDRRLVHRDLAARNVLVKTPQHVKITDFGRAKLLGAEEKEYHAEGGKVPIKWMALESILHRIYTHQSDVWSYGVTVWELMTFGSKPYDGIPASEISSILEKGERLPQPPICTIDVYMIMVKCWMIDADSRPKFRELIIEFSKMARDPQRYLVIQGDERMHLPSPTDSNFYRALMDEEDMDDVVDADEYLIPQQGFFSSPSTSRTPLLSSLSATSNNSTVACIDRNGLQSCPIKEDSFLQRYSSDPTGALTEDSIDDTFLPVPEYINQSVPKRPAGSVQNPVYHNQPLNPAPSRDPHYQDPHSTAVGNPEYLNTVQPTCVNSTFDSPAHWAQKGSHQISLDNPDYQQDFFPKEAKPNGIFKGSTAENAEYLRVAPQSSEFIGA
- experimental.details: H1975 pEGFR MSD cellular assay
- experimental.context: NCI-H1975 cells, serum starved, 1 hour compound incubation, pEGFR Tyr1068 MSD; read-out: HI975 pEGFR EC50
metric: EC50 (nM)

Here's what some known entries look like.
{"columns": ["compound", "EC50 (nM)"],
 "data": [
  ["CC(C)n1nc(N2CC[C@@H](N)C2=O)c2cnc(Nc3ccnc(N4CCC(C)(O)CC4)n3)cc21 [Example 158]", 1300],
  ["CC(C)n1nc(NC(C)(C)C#N)c2cnc(Nc3ccnc(N4CC[C@H](O)[C@H](F)C4)n3)cc21 (racemic) [Example 183]", 1650],
  ["CC(C)n1nc(N2CCOCC2)c2cnc(Nc3ccnc(N4CCC(O)C(F)C4)n3)cc21 (racemic) [Example 20]", 135],
  ["CCN1CCN(c2nn(C(C)C)c3cc(Nc4ccnc(-c5cnn(S(=O)(=O)C6CC6)c5)n4)ncc23)CC1 [Example 118]", 134],
  ["CC(C)n1nc(N2CC(C(=O)N3CC[C@H](CO)C3)C2)c2cnc(Nc3ccnc(-c4cnn(S(=O)(=O)C5CC5)c4)n3)cc21 [Example 166]", 177]
]}

(A) CC[C@@H](C)n1nc(N2CC[C@@H](O)C2)c2cnc(Nc3ccnc(N4CC[C@](C)(C(N)=O)C4)n3)cc21 (relative stereo) [Example 210]
(B) CCN1CCN(c2nn(C(C)C)c3cc(Nc4ccnc(-c5cnn(S(=O)(=O)C6CC6)c5)n4)ncc23)C1=O [Example 151]
Query: Looking at recorded values for EC50, does A or B come in lower? Please identify the chosen entry by its label.
Result: B

----------
- target: phosphor-EGFR in H1975(L585R/T790M) mutant EGFR expressing cells (Homo sapiens, UniProt P00533, L858R/T790M)
- experimental.details: H1975 pEGFR MSD cellular assay
- experimental.context: NCI-H1975 cells, serum starved, 1 hour compound incubation, pEGFR Tyr1068 MSD; read-out: HI975 pEGFR EC50
pEC50: −log10 of the molar value.
metric: pEC50

{"columns": ["molecule", "pEC50"],
 "data": [
  ["CC(C)n1nc(N2CCOC(CO)C2)c2cnc(Nc3ccnc(-c4cnn(S(=O)(=O)C5CC5)c4)n3)cc21 (stereo not drawn)", 7.27]
]}

(A) CCC(C)n1nc(N2CCN(C(=O)[C@H](C)O)CC2)c2cnc(Nc3ccnc(-c4cnn(S(=O)(=O)C5CC5)c4)n3)cc21 (stereo partly drawn)
(B) C[C@@H](n1nc(N2CC[C@@H](O)C2)c2cnc(Nc3ccnc(N4CC[C@](C)(O)[C@H](F)C4)n3)cc21)C(F)(F)F (racemic)
Query: Looking at recorded values for pEC50, does A or B come in lower? Please identify the chosen entry by its label.
Result: B

----------
- target: phosphor-EGFR in H1975(L585R/T790M) mutant EGFR expressing cells (Homo sapiens, UniProt P00533, L858R/T790M)
- experimental.details: H1975 pEGFR MSD cellular assay
- experimental.context: NCI-H1975 cells, serum starved, 1 hour compound incubation, pEGFR Tyr1068 MSD; read-out: HI975 pEGFR EC50
metric: EC50 (nM)

Here's what some known entries look like.
{"columns": ["compound", "result.units", "EC50"],
 "data": [
  ["CC(C)n1nc(N2CC(C(=O)N3CC[C@@H](O)C3)C2)c2cnc(Nc3ccnc(-c4cnn(S(=O)(=O)C5CC5)c4)n3)cc21 [Example 164]", "nM", 430],
  ["CCC(C)n1nc(N2CCNC2=O)c2cnc(Nc3ccnc(N4CC[C@H](O)[C@H](F)C4)n3)cc21 (stereo partly shown) [Example 195]", "nM", 44.9],
  ["CC(C)n1nc(NCCO)c2cnc(Nc3ccnc(-c4cnn(S(=O)(=O)C5CC5)c4)n3)cc21 [Example 6]", "nM", 73.8]
]}

(A) CC[C@H](C)n1nc(N2CC3(COC3)C2)c2cnc(Nc3ccnc(N4CC[C@](C)(O)[C@H](F)C4)n3)cc21 (relative stereo) [Example 65]
(B) CC(C)n1nc(N[C@@H]2CCOC2)c2cnc(Nc3ccnc(-c4cnn(S(=O)(=O)C5CC5)c4)n3)cc21 [Example 40]
(C) CCC(C)n1nc(N2CCNC(=O)C2)c2cnc(Nc3ccnc(N4CCC(C)(O)CC4)n3)cc21 (stereo not shown) [Example 92]
(D) CC(C)n1nc(N2CC(C(C)(C)C(N)=O)C2)c2cnc(Nc3ccnc(N4CCC(C)(O)CC4)n3)cc21 [Example 84]
Query: Arrange these compounds by their EC50, starting with the largest number. Sort the labels as requested; that list is your answer.
Result: D, C, A, B

----------
- target: phosphor-EGFR in H1975(L585R/T790M) mutant EGFR expressing cells (Homo sapiens, UniProt P00533, L858R/T790M)
- experimental.details: H1975 pEGFR MSD cellular assay
- experimental.context: NCI-H1975 cells, serum starved, 1 hour compound incubation, pEGFR Tyr1068 MSD; read-out: HI975 pEGFR EC50
pEC50: −log10 of the molar value.
metric: pEC50

(A) CCC(C)n1nc(N2CCNC2=O)c2cnc(Nc3ccnc(N4CC[C@@H](OC)[C@@H](F)C4)n3)cc21 (mixture of isomers) [Example 26]
(B) CC(C#N)Nc1nn(C(C)C)c2cc(Nc3ccnc(N4CC[C@H](O)[C@H](F)C4)n3)ncc12 (relative stereo) [Example 179]
Query: Looking at recorded values for pEC50, does A or B come in lower? Please identify the chosen entry by its label.
Result: B

(A) CCC(C)n1nc(N2C[C@@H](CO)NC2=O)c2cnc(Nc3ccnc(N4CCC(C)(O)CC4)n3)cc21 (mixture of isomers) [Example 176]
(B) CCC(C)n1nc(N2CC(F)(F)C2)c2cnc(Nc3ccnc(N4CCC(C)(O)CC4)n3)cc21 (centres unmarked) [Example 146]
(C) CC(C)n1nc(N2CC(C(C)(C)C#N)C2)c2cnc(Nc3ccnc(-c4cnn(S(=O)(=O)C5CC5)c4)n3)cc21 [Example 153]
(D) COC1CCN(c2nccc(Nc3cc4c(cn3)c(N3CC5(COC5)C3)nn4C(C)C)n2)CC1 [Example 2]
Query: Arrange these compounds by their pEC50, starting with the largest number. Sort the labels as requested; that list is your answer.
Result: D, C, B, A

(A) CC1CN(c2nn(C(C)C)c3cc(Nc4ccnc(N5CC[C@H](O)[C@H](F)C5)n4)ncc23)C(=O)N1 (relative stereo) [Example 127]
(B) CC(C)n1nc(N2CC(C)(CO)C2)c2cnc(Nc3ccnc(-c4cnn(S(=O)(=O)C5CC5)c4)n3)cc21 [Example 122]
(C) CC(C)n1nc(N2CC3(C2)CS(=O)(=O)C3)c2cnc(Nc3ccnc(N4CCC(C)(O)CC4)n3)cc21 [Example 160]
(D) CC(C)n1nc(N2CC[C@@H](O)C2)c2cnc(Nc3ccnc(N4C[C@@H](F)[C@@H](O)C(C)(C)C4)n3)cc21 (racemic) [Example 148]
(E) CC(C)n1nc(N2CC[S+]([O-])CC2)c2cnc(Nc3ccnc(-c4cnn(S(=O)(=O)C5CC5)c4)n3)cc21 [Example 110]
Query: Arrange these compounds by their pEC50, starting with the largest number. Sort the labels as requested; that list is your answer.
Result: D, B, E, A, C

(a) CCS(=O)(=O)n1cc(-c2nccc(Nc3cc4c(cn3)c(NC3COC3)nn4C(C)C)n2)cn1 [Example 16]
(b) CC[C@H](C)n1nc(N2CC(C(C)(C)O)C2)c2cnc(Nc3ccnc(N4CC[C@@H](O)[C@@H](F)C4)n3)cc21 (relative stereo) [Example 194]
(c) CO[C@H]1CCN(c2nccc(Nc3cc4c(cn3)c(N3CC5(COC5)C3)nn4C(C)C)n2)C[C@H]1F (racemic) [Example 103]
Query: Put these in order: smallest pEC50 first, largest last. Sort the labels as requested; that list is your answer.
Result: b, a, c
(b: 6.77, a: 7.10, c: 7.64)

----------
- target: EGFR del746-750 T790M (Homo sapiens, UniProt P00533, DEL746-750/T790M)
- Sequence (P00533 with tags, fused parts or gaps DEL746-750/T790M limits assumed): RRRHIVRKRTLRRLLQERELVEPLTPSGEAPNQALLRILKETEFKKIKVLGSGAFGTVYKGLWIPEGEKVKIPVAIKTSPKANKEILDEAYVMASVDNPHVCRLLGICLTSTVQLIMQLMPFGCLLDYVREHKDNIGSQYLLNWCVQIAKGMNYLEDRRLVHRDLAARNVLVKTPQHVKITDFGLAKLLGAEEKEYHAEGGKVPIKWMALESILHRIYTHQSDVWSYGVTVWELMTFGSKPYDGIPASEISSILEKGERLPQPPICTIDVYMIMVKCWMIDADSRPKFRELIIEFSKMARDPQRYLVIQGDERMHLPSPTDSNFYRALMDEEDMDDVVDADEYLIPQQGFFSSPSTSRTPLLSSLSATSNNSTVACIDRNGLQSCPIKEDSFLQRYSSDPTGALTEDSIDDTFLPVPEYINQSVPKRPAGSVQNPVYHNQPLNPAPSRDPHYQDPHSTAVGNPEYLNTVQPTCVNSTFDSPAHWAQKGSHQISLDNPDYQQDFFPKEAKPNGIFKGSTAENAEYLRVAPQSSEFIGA
- experimental.details: EGFR del746-750 T790M biochemical assay (Caliper mobility shift)
- experimental.context: 5 μM ATP; apparent Ki (Morrison fit) converted by Cheng-Prusoff, Km of ATP 2.1 μM; read-out: EGFR(T790M/d746-750) Ki
metric: Ki (nM)

{"columns": ["compound", "numeric.readout"],
 "data": [
  ["CC(C)n1nc(NCCO)c2cnc(Nc3ccnc(-c4cnn(S(=O)(=O)C5CC5)c4)n3)cc21", 1.2],
  ["CC(C)n1nc(N2CC(C(=O)N3CC[C@@H](O)C3)C2)c2cnc(Nc3ccnc(-c4cnn(S(=O)(=O)C5CC5)c4)n3)cc21", 1.1],
  ["CC(C)n1nc(N2CC(CC#N)C2)c2cnc(Nc3ccnc(-c4cnn(S(=O)(=O)C5CC5)c4)n3)cc21", 0.7],
  ["CC(C)n1nc(N2CC3(C2)C[S+]([O-])C3)c2cnc(Nc3ccnc(N4CCC(C)(O)CC4)n3)cc21", 19.6],
  ["CC(C)n1nc(N2CCCNC2=O)c2cnc(Nc3ccnc(-c4cnn(S(=O)(=O)C5CC5)c4)n3)cc21", 3.6],
  ["CCC(C)n1nc(N2CCCC2=O)c2cnc(Nc3ccnc(N4CCC(C)(O)CC4)n3)cc21 (centres unmarked)", 4.5],
  ["CC(C)n1nc(N2CCOC(CO)C2)c2cnc(Nc3ccnc(-c4cnn(S(=O)(=O)C5CC5)c4)n3)cc21 (centres unmarked)", 0.9],
  ["CC(C)n1nc(N2CCS(=N)(=O)CC2)c2cnc(Nc3ccnc(-c4cnn(S(=O)(=O)C5CC5)c4)n3)cc21", 1]
]}

(P) CC(C)n1nc(N2CC(N3CCOCC3)C2)c2cnc(Nc3ccnc(-c4cnn(S(=O)(=O)C5CC5)c4)n3)cc21
(Q) CCC(C)n1nc(N2CCS(=N)(=O)CC2)c2cnc(Nc3ccnc(N4CCC(C)(O)CC4)n3)cc21 (centres unmarked)
(R) CC(C)n1nc(N2CCC(C)(O)C2)c2cnc(Nc3ccnc(N4CC[C@@H](O)[C@@H](F)C4)n3)cc21 (relative stereo)
(S) CC(C)n1nc(N2CCC(O)C2)c2cnc(Nc3ccnc(-c4cnn(S(=O)(=O)C5CC5)c4)n3)cc21 (centres unmarked)
(T) CCC(C)n1nc(N2CCNC2=O)c2cnc(Nc3ccnc(OCC(C)(C)S(C)(=O)=O)n3)cc21 (racemic)
Query: Put these in order: smallest Ki first, largest last. Sort the labels as requested; that list is your answer.
Result: S, P, R, T, Q
(S: 0.6 nM, P: 1.1 nM, R: 1.9 nM, T: 5.6 nM, Q: 46.9 nM)
